- target_or_system: UniProt:Q96RR4
- Sequence (Q96RR4 whole entry, looked up): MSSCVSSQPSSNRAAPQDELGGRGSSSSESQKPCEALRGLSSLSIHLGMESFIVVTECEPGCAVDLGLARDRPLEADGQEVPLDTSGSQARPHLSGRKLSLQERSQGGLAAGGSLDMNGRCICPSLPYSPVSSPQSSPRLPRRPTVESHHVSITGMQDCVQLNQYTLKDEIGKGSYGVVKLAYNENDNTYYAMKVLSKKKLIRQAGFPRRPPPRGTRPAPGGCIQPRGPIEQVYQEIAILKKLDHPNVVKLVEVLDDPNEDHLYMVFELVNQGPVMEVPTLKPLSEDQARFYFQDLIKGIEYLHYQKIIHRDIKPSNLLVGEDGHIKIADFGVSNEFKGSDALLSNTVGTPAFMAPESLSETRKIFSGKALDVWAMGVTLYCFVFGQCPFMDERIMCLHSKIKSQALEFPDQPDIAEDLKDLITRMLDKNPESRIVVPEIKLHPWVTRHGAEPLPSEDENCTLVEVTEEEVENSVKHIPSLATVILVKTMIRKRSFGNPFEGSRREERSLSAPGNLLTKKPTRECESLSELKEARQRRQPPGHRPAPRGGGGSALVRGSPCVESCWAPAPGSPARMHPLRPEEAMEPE
- procedure_text: KINOMEscan competition binding
- condition_parameters: compound 10.0 µM
experimental_endpoint: kinase still bound, per cent of control

In [3]: df
Out[3]:
                                   molecule  target_or_system                    experimental_endpoint  reported_value
0         COc1cc2ncnc(Nc3cccc(Cl)c3)c2cc1OC    UniProt:Q96RR4  kinase still bound, per cent of control             72%
1  Cc1cn(-c2cc(C(=O)Nc3ccc(C)c(NC(=O)c4ccno4)c3)cc(C(F)(F)F)c2)cn1    UniProt:Q96RR4  kinase still bound, per cent of control            100%
2  O=c1[nH]c2ccccc2n1C1CCN(Cc2ccc(-c3nc4cc5[nH]cnc5cc4nc3-c3ccccc3)cc2)CC1    UniProt:Q96RR4  kinase still bound, per cent of control             97%
3  CCN(CCO)CCCOc1ccc2c(Nc3cc(CC(=O)Nc4cccc(F)c4)[nH]n3)ncnc2c1    UniProt:Q96RR4  kinase still bound, per cent of control            100%
4  COc1cc(C)c(Sc2cnc(NC(=O)c3ccc(CNC(C)C(C)C)cc3)s2)cc1C(=O)N1CCN(C(C)=O)CC1 (centres undefined)    UniProt:Q96RR4  kinase still bound, per cent of control             24%
5  CNC(=O)Nc1ccc(-c2nc(N3CC4CCC(C3)O4)c3cnn(C4CCC5(CC4)OCCO5)c3n2)cc1    UniProt:Q96RR4  kinase still bound, per cent of control            100%
6  CCN1CCN(Cc2ccc(NC(=O)c3ccc(C)c(/C=C/c4cnc5[nH]ccc5c4OC)c3)cc2C(F)(F)F)CC1    UniProt:Q96RR4  kinase still bound, per cent of control            100%
7  CC1=C(C(=O)Nc2cc3cn[nH]c3cc2F)C(c2ccc(C(F)(F)F)cc2)CC(=O)N1 (centres undefined)    UniProt:Q96RR4  kinase still bound, per cent of control             55%
8  CCCS(=O)(=O)Nc1ccc(F)c(C(=O)c2c[nH]c3ncc(Cl)cc23)c1F    UniProt:Q96RR4  kinase still bound, per cent of control             79%

---

- target_or_system: UniProt:O00750
- Sequence (O00750 whole entry, looked up): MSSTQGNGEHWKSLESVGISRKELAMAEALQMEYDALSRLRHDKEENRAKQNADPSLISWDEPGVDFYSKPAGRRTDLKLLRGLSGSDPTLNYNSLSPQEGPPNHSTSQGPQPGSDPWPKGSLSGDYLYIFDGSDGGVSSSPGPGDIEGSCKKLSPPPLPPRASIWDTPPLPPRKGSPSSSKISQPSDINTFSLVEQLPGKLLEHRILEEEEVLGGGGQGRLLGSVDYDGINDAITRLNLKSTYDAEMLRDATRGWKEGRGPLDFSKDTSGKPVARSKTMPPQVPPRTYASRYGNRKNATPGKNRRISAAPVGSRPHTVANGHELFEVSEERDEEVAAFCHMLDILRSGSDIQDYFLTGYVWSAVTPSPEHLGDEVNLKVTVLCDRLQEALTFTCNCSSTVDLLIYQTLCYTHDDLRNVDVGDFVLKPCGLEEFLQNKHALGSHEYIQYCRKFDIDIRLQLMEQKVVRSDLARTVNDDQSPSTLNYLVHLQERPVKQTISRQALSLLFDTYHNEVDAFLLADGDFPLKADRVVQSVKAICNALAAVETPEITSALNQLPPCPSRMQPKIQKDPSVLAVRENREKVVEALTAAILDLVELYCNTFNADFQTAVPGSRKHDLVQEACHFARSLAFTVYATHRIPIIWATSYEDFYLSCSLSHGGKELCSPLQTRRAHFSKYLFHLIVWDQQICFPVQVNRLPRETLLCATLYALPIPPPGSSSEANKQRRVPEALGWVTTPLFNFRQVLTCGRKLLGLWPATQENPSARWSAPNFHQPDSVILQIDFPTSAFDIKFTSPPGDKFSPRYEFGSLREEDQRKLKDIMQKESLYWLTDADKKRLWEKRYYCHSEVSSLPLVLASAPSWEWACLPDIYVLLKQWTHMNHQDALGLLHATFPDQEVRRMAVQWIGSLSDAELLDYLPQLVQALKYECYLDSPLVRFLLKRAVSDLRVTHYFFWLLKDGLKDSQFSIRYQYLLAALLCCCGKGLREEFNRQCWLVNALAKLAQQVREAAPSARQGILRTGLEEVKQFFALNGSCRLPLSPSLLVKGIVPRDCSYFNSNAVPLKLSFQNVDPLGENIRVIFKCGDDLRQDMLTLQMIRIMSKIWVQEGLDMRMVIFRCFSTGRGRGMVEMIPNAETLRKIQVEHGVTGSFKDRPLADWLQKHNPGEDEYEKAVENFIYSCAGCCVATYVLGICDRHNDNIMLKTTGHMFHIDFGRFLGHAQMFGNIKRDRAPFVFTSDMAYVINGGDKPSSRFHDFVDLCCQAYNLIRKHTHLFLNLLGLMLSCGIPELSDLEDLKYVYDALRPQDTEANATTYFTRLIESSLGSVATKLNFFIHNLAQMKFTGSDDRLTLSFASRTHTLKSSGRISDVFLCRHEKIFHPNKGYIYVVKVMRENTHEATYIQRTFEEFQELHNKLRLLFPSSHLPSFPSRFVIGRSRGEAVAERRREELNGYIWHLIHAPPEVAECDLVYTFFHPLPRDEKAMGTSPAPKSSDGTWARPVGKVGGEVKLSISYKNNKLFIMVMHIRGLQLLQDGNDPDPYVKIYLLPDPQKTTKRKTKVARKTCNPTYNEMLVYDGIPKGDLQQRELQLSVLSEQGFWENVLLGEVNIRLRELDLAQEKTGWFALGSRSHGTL
- procedure_text: KINOMEscan competition binding
- condition_parameters: compound 10.0 µM
experimental_endpoint: kinase still bound, per cent of control (%)

>>> print(df.to_string())
                               given_smiles                    experimental_endpoint  endpoint_unit  reported_value
0  Cc1cn(-c2cc(C(=O)Nc3ccc(C)c(NC(=O)c4ccno4)c3)cc(C(F)(F)F)c2)cn1  kinase still bound, per cent of control              %             100
1  COc1cc(N2CCC(C(N)=O)CC2)ccc1Nc1nc(N)c(Cl)c(Nc2ccccc2S(=O)(=O)C(C)C)n1  kinase still bound, per cent of control              %             100
2         COc1cc2ncnc(Nc3cccc(Cl)c3)c2cc1OC  kinase still bound, per cent of control              %             7.6
3  CCCS(=O)(=O)Nc1ccc(F)c(C(=O)c2c[nH]c3ncc(Cl)cc23)c1F  kinase still bound, per cent of control              %              84
4  COc1cc2c(Nc3ccc(NC(=O)c4ccccc4)cc3)ncnc2cc1OCCCN1CCOCC1  kinase still bound, per cent of control              %             100

---

- target_or_system: BMPR1A (human) (UniProt P36894)
- Sequence (P36894 whole entry, looked up): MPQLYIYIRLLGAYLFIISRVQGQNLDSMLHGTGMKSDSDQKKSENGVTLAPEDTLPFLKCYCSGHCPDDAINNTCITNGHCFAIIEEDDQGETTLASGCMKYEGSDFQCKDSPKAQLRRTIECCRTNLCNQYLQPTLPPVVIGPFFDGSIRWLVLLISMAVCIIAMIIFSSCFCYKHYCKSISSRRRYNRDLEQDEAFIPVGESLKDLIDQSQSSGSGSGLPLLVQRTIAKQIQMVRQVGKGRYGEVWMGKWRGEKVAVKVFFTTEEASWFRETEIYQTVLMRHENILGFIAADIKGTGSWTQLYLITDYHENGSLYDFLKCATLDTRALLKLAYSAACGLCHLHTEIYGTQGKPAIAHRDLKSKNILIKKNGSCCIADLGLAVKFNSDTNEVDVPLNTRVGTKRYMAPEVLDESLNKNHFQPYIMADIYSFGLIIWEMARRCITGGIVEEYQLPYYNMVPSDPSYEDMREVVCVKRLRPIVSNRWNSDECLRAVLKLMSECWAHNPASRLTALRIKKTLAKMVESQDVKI
- procedure_text: KINOMEscan competition binding
- condition_parameters: compound 10.0 µM
// returns 0 unless kinase still bound, per cent of control is strictly below 80%, in which case 1

                                    compound  classification
 0  CCN(CCO)CCCOc1ccc2c(Nc3cc(CC(=O)Nc4cccc(F)c4)[nH]n3)ncnc2c1               1
 1  CC1=C(C(=O)Nc2cc3cn[nH]c3cc2F)C(c2ccc(C(F)(F)F)cc2)CC(=O)N1 (configuration not stated)               1
 2  CCc1nc(-c2cccc(C)c2)c(-c2ccnc(NC(=O)c3ccccc3)c2)s1               1
 3  C=CC(=O)Nc1ccc(C(=O)c2sc(Nc3ccc(N4CCN(C)CC4)cc3OC)nc2N)cc1               0
 4  COc1cc(C)c(Sc2cnc(NC(=O)c3ccc(CNC(C)C(C)C)cc3)s2)cc1C(=O)N1CCN(C(C)=O)CC1 (configuration not stated)               0
 5  CCCS(=O)(=O)Nc1ccc(F)c(C(=O)c2c[nH]c3ncc(Cl)cc23)c1F               1
 6  Cc1cn(-c2cc(C(=O)Nc3ccc(C)c(NC(=O)c4ccno4)c3)cc(C(F)(F)F)c2)cn1               0
 7  COc1cc2c(Nc3ccc(NC(=O)c4ccccc4)cc3)ncnc2cc1OCCCN1CCOCC1               1
 8  CC(=O)c1c(C)c2cnc(Nc3ccc(N4CCNCC4)cn3)nc2n(C2CCCC2)c1=O               1
 9  O=c1[nH]c2ccccc2n1C1CCN(Cc2ccc(-c3nc4cc5[nH]cnc5cc4nc3-c3ccccc3)cc2)CC1               1
10  COc1cc(N2CCC(C(N)=O)CC2)ccc1Nc1nc(N)c(Cl)c(Nc2ccccc2S(=O)(=O)C(C)C)n1               0
11  N#Cc1cc(-c2ccnc(Nc3ccc(-n4cnc(-c5cccnc5)n4)cc3)n2)cc(N2CCOCC2)c1               1
12  CNC(=O)Nc1ccc(-c2nc(N3CC4CCC(C3)O4)c3cnn(C4CCC5(CC4)OCCO5)c3n2)cc1               0
13  N#C/C(=C1/Nc2ccccc2S1)c1ccnc(NCCc2cccnc2)n1               0
14  CCOc1cc(N2CCC(O)CC2)ccc1Nc1ncc2c(n1)N(C)c1ccccc1C(=O)N2C               0
15  CCN1CCN(Cc2ccc(NC(=O)c3ccc(C)c(/C=C/c4cnc5[nH]ccc5c4OC)c3)cc2C(F)(F)F)CC1               1
16         COc1cc2ncnc(Nc3cccc(Cl)c3)c2cc1OC               1

---

- target_or_system: CSNK1G1 (human)
- procedure_text: KINOMEscan competition binding
- condition_parameters: compound 10.0 µM
experimental_endpoint: kinase still bound, per cent of control (%)

>>> df
                                    compound                    experimental_endpoint  reported_value
 0  N#Cc1cc(-c2ccnc(Nc3ccc(-n4cnc(-c5cccnc5)n4)cc3)n2)cc(N2CCOCC2)c1  kinase still bound, per cent of control              92
 1  CCCS(=O)(=O)Nc1ccc(F)c(C(=O)c2c[nH]c3ncc(Cl)cc23)c1F  kinase still bound, per cent of control              66
 2  CC(=O)c1c(C)c2cnc(Nc3ccc(N4CCNCC4)cn3)nc2n(C2CCCC2)c1=O  kinase still bound, per cent of control              83
 3  COc1ccc(N(C(=O)Oc2cc(C(=O)Nc3cccc(C(F)(F)F)c3)ccc2C)c2ccnc(Nc3ccc(N4CCN(C)CC4)cc3)n2)c(OC)c1  kinase still bound, per cent of control             100
 4  C=CC(=O)Nc1ccc(C(=O)c2sc(Nc3ccc(N4CCN(C)CC4)cc3OC)nc2N)cc1  kinase still bound, per cent of control              18
 5  COc1cc2c(Nc3ccc(NC(=O)c4ccccc4)cc3)ncnc2cc1OCCCN1CCOCC1  kinase still bound, per cent of control              97
 6  Cc1cn(-c2cc(C(=O)Nc3ccc(C)c(NC(=O)c4ccno4)c3)cc(C(F)(F)F)c2)cn1  kinase still bound, per cent of control             100
 7  COc1cc(C)c(Sc2cnc(NC(=O)c3ccc(CNC(C)C(C)C)cc3)s2)cc1C(=O)N1CCN(C(C)=O)CC1 (configuration not stated)  kinase still bound, per cent of control             100
 8  CNC(=O)Nc1ccc(-c2nc(N3CC4CCC(C3)O4)c3cnn(C4CCC5(CC4)OCCO5)c3n2)cc1  kinase still bound, per cent of control              54
 9  CCOc1cc(N2CCC(O)CC2)ccc1Nc1ncc2c(n1)N(C)c1ccccc1C(=O)N2C  kinase still bound, per cent of control             100
10  O=c1[nH]c2ccccc2n1C1CCN(Cc2ccc(-c3nc4cc5[nH]cnc5cc4nc3-c3ccccc3)cc2)CC1  kinase still bound, per cent of control             100
11  N#C/C(=C1/Nc2ccccc2S1)c1ccnc(NCCc2cccnc2)n1  kinase still bound, per cent of control              42
12  CC1=C(C(=O)Nc2cc3cn[nH]c3cc2F)C(c2ccc(C(F)(F)F)cc2)CC(=O)N1 (configuration not stated)  kinase still bound, per cent of control             100
13  CCN1CCN(Cc2ccc(NC(=O)c3ccc(C)c(/C=C/c4cnc5[nH]ccc5c4OC)c3)cc2C(F)(F)F)CC1  kinase still bound, per cent of control              98
14         COc1cc2ncnc(Nc3cccc(Cl)c3)c2cc1OC  kinase still bound, per cent of control             100
15  COc1cc(N2CCC(C(N)=O)CC2)ccc1Nc1nc(N)c(Cl)c(Nc2ccccc2S(=O)(=O)C(C)C)n1  kinase still bound, per cent of control             100
16  CCc1nc(-c2cccc(C)c2)c(-c2ccnc(NC(=O)c3ccccc3)c2)s1  kinase still bound, per cent of control              28
